procedure-text: Pharmacokinetic Assay, single oral dose 5 mg/kg (Table 12)
Format: in vivo
experimental-setup: mouse; plasma concentration, C57 female mice, single oral dose 5 mg/kg, 0.5 h
Description: Adult C57 female mice were received to single-dose of the test compounds with 15% DMSO, 10% Kolliphor^@HS 15 and 75% saline as excipients, the mice (n=3) were giving oral administration (intragastric administration) with the compounds at a dose of 5 mg/kg. […] The plasma was transferred into centrifuge tubes, and stored at −20° C. until being analyzed. Concentrations of test compounds in the plasma samples were analyzed with liquid chromatography-tandem mass spectrometry (LC-MS/MS). […]
parameter: concentration at 0.5 h (ng/mL)
Answers are plain numbers, in ng/mL.

Here are 3 molecules together with their reported answers.
Cc1c(-c2nc3c(o2)CCN(CC2CCO2)C3)cccc1-c1cccc(-c2nc3cc(CN4CCC[C@H]4C(=O)O)c(OC(F)F)cc3o2)c1C (stereo partly drawn)    469
Cc1c(-c2nc3cc(CN4CCC[C@H]4C(=O)O)c(OC(F)F)cc3o2)cccc1-c1cccc(-c2ccc(CN3CCCC3)cc2Cl)c1C    36.9
COc1nc(-c2cccc(-c3cccc(-c4nc5cc(CN6CCC[C@H]6C(=O)O)c(OC(F)F)cc5o4)c3C)c2C)ccc1CN1CCC(C)(C)C1    80.4

Field: concentration at 0.5 h. Fill in for each record below.
1. Cc1c(-c2nc3cc(CN4CCC[C@H]4C(=O)O)c(OC(F)F)cc3o2)cccc1-c1cccc(-c2nc3cc(CN4[C@H]5CC[C@@H]4CC5)c(OC(F)F)cc3o2)c1C
2. Cc1c(-c2nc3cc(CN4CCC[C@H]4C(=O)O)c(OC(F)F)cc3o2)cccc1-c1cccc(-c2nc3cc(CN4CC(F)C(F)C4)cc(C#N)c3o2)c1C (stereo partly drawn)
3. Cc1c(-c2nc3cc(CN4CCC[C@H]4C(=O)O)c(OC(F)F)cc3o2)cccc1-c1cccc(-c2nc3cc(CN4CC[C@@H](C)C4)cc(C#N)c3o2)c1C

## Output
42.6
294
108

---

Can you tell me concentration at 0.5 h for the items I'm about to list?
procedure-text: Pharmacokinetic Assay, single oral dose 5 mg/kg (Table 12)
Assay type: in vivo
experimental-setup: mouse; plasma concentration, C57 female mice, single oral dose 5 mg/kg, 0.5 h
One number for each entry, in ng/mL.

Past entries and their recorded results:
Cc1c(-c2nc3cc(CN4CCC[C@H]4C(=O)O)c(OC(F)F)cc3o2)cccc1-c1cccc(-c2ccc(CN3CCCC3)cc2F)c1C    42.3
Cc1c(-c2cnc(N3CCCC3)nc2)cccc1-c1cccc(-c2nc3cc(CN4CCC[C@H]4C(=O)O)c(OC(F)F)cc3o2)c1C    522
Cc1nc(-c2cccc(-c3cccc(-c4nc5cc(CN6CCC[C@H]6C(=O)O)c(OC(F)F)cc5o4)c3C)c2C)oc1CN1CCCC1    131
Cc1c(-c2nc3cc(CN4CCC[C@H]4C(=O)O)c(OC(F)F)cc3o2)cccc1-c1cccc(-c2nc3cc(CN4CC5CC4C5)cc(C(F)(F)F)c3o2)c1C    21.3
Cc1c(-c2nc3c(o2)CCN(CC(F)F)C3)cccc1-c1cccc(-c2nc3cc(CN4CCC[C@H]4C(=O)O)c(OC(F)F)cc3o2)c1C    428
COc1c(-c2nc3cc(CN4CCCC4)c(F)c(F)c3o2)cccc1-c1cccc(-c2nc3cc(CN4CCC[C@H]4C(=O)O)c(OC(F)F)cc3o2)c1C    121
Cc1c(-c2nc3c(o2)CCN(CCCC(F)(F)F)C3)cccc1-c1cccc(-c2nc3cc(CN4CCC[C@H]4C(=O)O)c(OC(F)F)cc3o2)c1C    520
Cc1c(-c2nc3cc(CN4CCC[C@H]4C(=O)O)c(OC(F)F)cc3o2)cccc1-c1cccc(-c2nc3cc(CN4CCC(C#N)C4)cc(C#N)c3o2)c1C (stereo partly drawn)    211

Read the next record carefully.
## Input Param item = COc1nc(-c2cccc(-c3cccc(-c4nc5cc(CN6CCC[C@H]6C(=O)O)c(OC(F)F)cc5o4)c3C)c2C)cnc1CN1CC[C@@H](C)C1 ; retrieve measured concentration at 0.5 h.
## Output 20.5
